target: UniProt:Q9UBN7; assay: Inhibition of human recombinant HDAC6 expressed in Baculovirus infected Sf9 cells using Ac-Leu-Gly-Lys(Ac)-AMC as substrate preincubated for 5 mins followed by substrate addition measured after 30 mins by fluorescence assay
Sequence (Q9UBN7 whole entry): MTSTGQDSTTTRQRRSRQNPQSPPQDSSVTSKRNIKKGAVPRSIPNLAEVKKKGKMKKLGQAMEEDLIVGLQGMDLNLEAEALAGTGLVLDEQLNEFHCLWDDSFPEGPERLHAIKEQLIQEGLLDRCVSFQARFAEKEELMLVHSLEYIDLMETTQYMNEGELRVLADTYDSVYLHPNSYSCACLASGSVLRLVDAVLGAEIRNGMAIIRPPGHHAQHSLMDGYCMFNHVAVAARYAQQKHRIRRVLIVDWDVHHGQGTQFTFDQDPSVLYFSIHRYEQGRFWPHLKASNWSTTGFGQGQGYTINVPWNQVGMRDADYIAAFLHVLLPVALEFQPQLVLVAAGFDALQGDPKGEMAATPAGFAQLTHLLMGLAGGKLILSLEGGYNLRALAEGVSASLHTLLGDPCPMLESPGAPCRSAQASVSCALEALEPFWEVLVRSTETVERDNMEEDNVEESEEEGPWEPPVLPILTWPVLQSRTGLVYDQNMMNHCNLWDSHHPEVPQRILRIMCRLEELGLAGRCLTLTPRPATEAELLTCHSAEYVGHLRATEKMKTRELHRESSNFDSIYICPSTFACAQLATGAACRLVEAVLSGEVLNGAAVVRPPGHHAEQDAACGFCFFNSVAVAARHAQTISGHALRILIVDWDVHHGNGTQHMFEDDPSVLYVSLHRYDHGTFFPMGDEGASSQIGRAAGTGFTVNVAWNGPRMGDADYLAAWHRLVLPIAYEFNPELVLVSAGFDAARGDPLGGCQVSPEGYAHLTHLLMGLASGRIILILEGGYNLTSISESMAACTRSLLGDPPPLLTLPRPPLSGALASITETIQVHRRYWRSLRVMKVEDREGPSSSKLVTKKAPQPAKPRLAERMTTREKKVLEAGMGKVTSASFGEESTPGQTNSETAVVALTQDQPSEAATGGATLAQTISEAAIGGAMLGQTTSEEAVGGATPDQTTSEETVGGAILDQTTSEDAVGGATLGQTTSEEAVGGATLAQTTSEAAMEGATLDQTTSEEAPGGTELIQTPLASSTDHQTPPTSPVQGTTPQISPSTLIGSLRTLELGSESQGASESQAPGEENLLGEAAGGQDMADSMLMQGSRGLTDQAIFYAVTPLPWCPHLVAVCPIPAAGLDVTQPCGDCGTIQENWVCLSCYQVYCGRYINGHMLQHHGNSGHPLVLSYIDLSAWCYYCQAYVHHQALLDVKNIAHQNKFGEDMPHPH
outcome_measure: IC50

Please report the measured IC50 for `Nc1ccccc1NC(=O)c1ccc(Cn2cc(-c3ccc(C(=O)NCc4cccnc4)cc3)nn2)cc1`
> 100 µM

---

target: Histone deacetylase 2 (Homo sapiens)
Sequence (Q92769 whole entry): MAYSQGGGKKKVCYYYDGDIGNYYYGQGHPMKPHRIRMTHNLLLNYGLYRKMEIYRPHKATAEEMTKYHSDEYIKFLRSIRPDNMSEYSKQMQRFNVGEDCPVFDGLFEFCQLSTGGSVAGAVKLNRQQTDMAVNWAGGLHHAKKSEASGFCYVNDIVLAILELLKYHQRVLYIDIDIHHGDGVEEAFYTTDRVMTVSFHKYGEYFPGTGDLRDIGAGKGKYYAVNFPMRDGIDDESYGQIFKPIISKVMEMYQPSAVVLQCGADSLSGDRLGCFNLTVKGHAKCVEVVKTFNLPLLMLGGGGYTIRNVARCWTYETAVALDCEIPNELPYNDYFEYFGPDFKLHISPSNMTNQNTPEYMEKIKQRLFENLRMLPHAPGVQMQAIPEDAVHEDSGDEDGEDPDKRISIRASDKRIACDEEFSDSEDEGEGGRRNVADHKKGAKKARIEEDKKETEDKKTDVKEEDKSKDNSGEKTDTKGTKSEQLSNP
outcome_measure: pIC50
Please treat pIC50 as minus the base-10 logarithm of the molar concentration.

Please report the measured pIC50 for `Nc1ccccc1NC(=O)c1ccc(Cn2cc(-c3ccc(C(=O)NCc4cccnc4)cc3)nn2)cc1`
7.12
